- protocolNotes: NCI Yeast Anticancer Drug Screen. Data for the sgs1 mgt1 strain (AID 161);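 note: 0% = growth of cultures given vehicle only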
- testSettings: S. cerevisiae sgs1 mgt1 strain, active compounds read high; at 50.0 µM unless noted
- Method: Growth inhibition of yeast strains with defined genetic alterations is measured as a screen for potential anti-cancer activity. Selected strains with alterations in DNA damage repair or cell cycle control were exposed to compounds and growth inhibition was measured relative to vehicle treated controls. The strain used in this assay is sgs1 mgt1
About 79,000 compounds went through this panel and 15% of them were active in at least one assay; those are over-represented in the sample as a whole.
Listing of recorded growth inhibition by entry.
Write the answer as a number in %, unit excluded.

See these solved cases before continuing.
>>> df
                                   compound          parameter    val
0           O=C(C[n+]1ccccc1)c1ccc(O)c(I)c1  growth inhibition   21.9
1  CCS(=O)(=O)c1ccc(NC(=O)OC2CCC3(C)C(=CCC4C3CCC3(C)C(C(C)CCCC(C)C)CCC43)C2)cc1 (configuration not stated)  growth inhibition   10.2
2  CC1=CC(C)C(C(=O)OCC(C)C)C(C(=O)OCC(C)C)C1 (configuration not stated)  growth inhibition   -5.1
3  CN[C@@H]1[C@H](O)[C@H](NC)[C@H]2O[C@@]3(O)C(=O)C[C@@H](C)O[C@H]3O[C@@H]2[C@H]1O  growth inhibition  -21.9
4  C(CCC1CO1)CC1CO1 (configuration not stated)  growth inhibition  -31.6

Okay, next one:
input: Field request: growth inhibition | item: CCCCCCCCC1OC1CCCCCCCCOCC(O)CO (configuration not stated)
output: -1.9

###

- protocolNotes: NCI Yeast Anticancer Drug Screen. Data for the mlh1 rad18 strain (AID 175)
- testSettings: S. cerevisiae mlh1 rad18 strain growth inhibition, active compounds read high; at 50.0 µM unless noted
Compounds without any hit were thinned out: in the full panel of roughly 79,000, 15% have a hit.
parameter: growth inhibition (%)
Form entry: value (%) — number only.

>>> print(df.to_string())
                                   compound    val
0                   Cc1cc(C)c(CC(C)C)c(C)c1  -2.45
1      O=C1C(N2CCCCC2)=C(c2ccccc2)c2ccccc21  -10.2
2  CC1=C(CCC(=O)O)c2cc3nc(cc4[nH]c(cc5[nH]c(cc1n2)c(C)c5C1CC1C(=O)O)c(C)c4C1CC1C(=O)O)C(C)=C3CCC(=O)O (stereo not given)   25.1

input: Recorded growth inhibition for COc1ccc(N=Nc2nc(N)c(C(N)=O)[nH]2)cc1 , please?
output: -16.6

input: If you can, please state the reported growth inhibition value of O=[N+]([O-])c1cccc(C2=NN(c3ccccc3)C3c4cc(Br)ccc4OCC23)c1 (stereo not given) .
output: -31.7

input: Would you kindly share the measured growth inhibition for CCC(O)C(C)(C)[N+](=O)[O-] (stereo not given) ?
output: 0.35

input: If you can, please state the reported growth inhibition value of COc1ccc(C(c2cc3c(cc2O)OCO3)N2CCN(C(c3ccc(OC)c(OC)c3)c3cc4c(cc3O)OCO4)CC2)cc1OC (stereo not given) .
output: -17.1

input: I would be grateful if you could share the reported growth inhibition for COC(=O)c1ccc(N=NN(C)CN=[N+]=[N-])cc1 .
output: 3.15

input: Quick check: growth inhibition of CS(=O)CCC1C(=O)OC(C(C)(C)C)N1C(=O)c1ccccc1 (stereo not given) ?
output: -0.4

input: What does the record list as growth inhibition for COc1ccccc1OC(=O)c1ccc(Cl)cc1 ?
output: 0.75

###

- protocolNotes: NCI Yeast Anticancer Drug Screen. Data for the sgs1 mgt1 strain (AID 161);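 note: 0% = growth of cultures given vehicle only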
- testSettings: S. cerevisiae sgs1 mgt1 strain, active compounds read high; at 50.0 µM unless noted
The panel holds about 79,000 compounds, 15% with a hit somewhere; the sample as a whole holds those more often. Activity calls are given as the source filed them. No stated cut-off is given here; in the data, active means growth inhibition above about 70%; inactive means the rest. Where a SMILES comes first, the peptide text is derived from it. [ ]: non-standard residue; d: D form. The star is where a group is joined. Cbz = O=C(OCc1ccccc1)*; Nva = CCC[CH](N)C(=O)O
Measured growth inhibition, listed per entry.

molecule	val
CC(=O)C(CCC#N)(CCC#N)C(C)=O	-4.8% (inactive)
Cc1cc(N(CCC#N)CCC#N)ccc1N=Nc1ccc(S(N)(=O)=O)cc1	-12.4% (inactive)
CC1(C)CC2(Nc3ccccc3N2)C2=C(O1)C(=O)OC2	-18.7% (inactive)
CC(=O)Cc1cc(-c2cc(CC(C)=O)nc(N)n2)nc(N)n1	12.7% (inactive)
CCCC(NC(=O)OCc1ccccc1)C(=O)NC(CC(C)C)C(N)=O (configuration not stated) (Cbz-[Nva]-Leu-NH2; configuration not given here)	5% (inactive)
OC1c2ccccc2C2c3ccccc3C1C2Cl (configuration not stated)	25.8% (inactive)

input: Look up growth inhibition for this molecule: C[N+]1(CCN[N+]2(C)CCCCC2)CCc2ccccc2C1 (configuration not stated)
output: -44.5% (inactive)

input: Which value of growth inhibition has been reported for O/N=C1\c2ccccc2-c2cccc(Br)c21 in the records?
output: 4.55% (inactive)

input: For the molecule shown here, CCCCCCCCCc1cc(=O)c2c(O)cccc2o1 , give the reported growth inhibition.
output: -11% (inactive)

###

- protocolNotes: NCI Yeast Anticancer Drug Screen. Data for the bub3 strain (AID 167)
- testSettings: S. cerevisiae bub3 mutant strain, active compounds read high; at 50.0 µM unless noted
The panel holds about 79,000 compounds, 15% with a hit somewhere; the sample as a whole holds those more often.
parameter: growth inhibition (%)
Note: unit % is implicit; provide only the numeric part.

>>> df
                                   compound   val
0  CC1(O)CC(=O)c2c(cc3ccc(-c4c5c(c(O)c6c(O)cccc46)C(=O)CC(C)(O)C5)c(O)c3c2O)C1 (stereo not given)  19.7

Attention now shifts to the item below.
input: I have this compound here, Cc1nn2c(nnn2CCO)c1-c1ccccc1 , and I need its recorded growth inhibition.
output: -25.4

###

- protocolNotes: NCI Yeast Anticancer Drug Screen. Data for the mlh1 rad18 strain (AID 175)
- testSettings: S. cerevisiae mlh1 rad18 strain growth inhibition, active compounds read high; at 50.0 µM unless noted
- Method: Growth inhibition of yeast strains with defined genetic alterations is measured as a screen for potential anti-cancer activity. Selected strains with alterations in DNA damage repair or cell cycle control were exposed to compounds and growth inhibition was measured relative to vehicle treated controls. The strain used in this assay is mlh1 rad18
About 79,000 compounds went through this panel and 15% of them were active in at least one assay; those are over-represented in the sample as a whole.
parameter: growth inhibition (%)
Lab book: enter the figure in %, no units written.

Consider the reported growth inhibition for these molecules:
In [3]: df
Out[3]:
                                   molecule   val
0                             CSc1ccc(C)cc1  26.7
1  CCOC(=O)CN1C(=O)/C(=C2\SC(=S)N(CC(=O)OCC)C2=O)SC1=S   9.4
2     COc1ccc(C(=[N+]=[N-])c2ccc(OC)cc2)cc1  4.75
3  CC(C)(C)C(=O)NC(OC(NC(=O)C(C)(C)C)C(=O)C(C)(C)C)C(=O)C(C)(C)C (configuration not stated)    21
4         Fc1cccc2c(SCc3ccc(Cl)cc3Cl)cnnc12  2.85

input: Recorded growth inhibition for Cc1ccc(C2=CC=C(c3ccccc3)C2)cc1 , please?
output: 36.6

input: Recorded growth inhibition of N.N.N.N.O=C([O-])O.O=C([O-])[O-].[Co+3] , please.
output: 8.95

input: Need growth inhibition of CNC(=S)NCOCCOC(C)=O , thanks.
output: 3.45

input: What value of growth inhibition has been recorded for this entry: O=C1NCCCc2nonc21
output: 5.2

input: Which measured growth inhibition value corresponds to COC(=O)c1ccccc1NC(=O)Cc1ccccc1 ?
output: -15.7

input: // returns reported growth inhibition for input CC(C)c1ccc(C2NC(c3ccccc3)c3c(ccc4ccccc34)O2)cc1 (configuration not stated)
output: -1.65

input: # get_value(readout='growth inhibition', item= COc1c2c(c(OC)c3ccccc13)C(=O)C1=C(CC=CC1)C2=O )
output: 40.1

###

Below, each of the compounds is paired with its reported growth inhibition value.
- protocolNotes: NCI Yeast Anticancer Drug Screen. Data for the bub3 strain (AID 167)
- testSettings: S. cerevisiae bub3 mutant strain, active compounds read high; at 50.0 µM unless noted
The panel holds about 79,000 compounds, 15% with a hit somewhere; the sample as a whole holds those more often.
Response body: numeric value in %, unit text excluded.

compound	unitSymbol	val
CC(C)(C)COB(OCC(C)(C)C)OCC(C)(C)C	%	-9.55
O=CC(CO)C(C=O)n1ncc2ccccc21 (stereo unspecified)	%	13.3
CC(C)=Nn1cnc2c1NC(C)(C)N=C2C(N)=O	%	14.8
COc1ccc(/C=C(\C(=O)OCC(C)C)c2ccc(OC)c(OC)c2)cc1OC	%	-7.2

input: Which growth inhibition is reported for this compound? OC1COC(CCl)OC1C1OC(CCl)OCC1O (stereo unspecified)
output: 19.4

input: Quick one: growth inhibition of S=c1c(-c2ccccc2)cnc2sccn12 ?
output: 19.8

input: # lookup: growth inhibition of O=C1CCCCC(=O)NCCCCCCN1
output: -12.4

input: What value of growth inhibition has been recorded for this entry: COc1cc(/C=N/NC(=O)c2ccccc2OC)ccc1O
output: 27.9

input: Which growth inhibition is reported for this compound? CCCCN(Cc1ccccc1)C(=S)Nc1ccccc1
output: 63.5

input: Which growth inhibition reading was recorded for the compound CC(=O)[CH-]C(=O)c1ccccc1.CC(=O)[CH-]C(=O)c1ccccc1.CC[C@H](/C=C/C(C)[C@H]1CCC2[C@@H]3CC=C4C[C@@H]([O-])CC[C@]4(C)C3CC[C@@]21C)C(C)C.CC[C@H](/C=C/C(C)[C@H]1CCC2[C@@H]3CC=C4C[C@@H]([O-])CC[C@]4(C)C3CC[C@@]21C)C(C)C.Cl.[Ti+4] (stereo partly specified) ?
output: 24.6

input: Entry CCCCCCCCCCCCCCCCS(=O)(=O)N(/N=c1/sc2ccccc2n1C)C(=O)OCC has what growth inhibition?
output: -12.2

input: What does the record list as growth inhibition for Cc1cc(N(CCC#N)CCC#N)ccc1/C=C1/CN(N2C(=O)/C(=C/c3ccc(N(CCC#N)CCC#N)cc3C)N=C2c2ccccc2)C(c2ccccc2)=N1 ?
output: -28.8

input: Record request: growth inhibition value, item CCO/C([O-])=N\[n+]1c(C)nc2cc3c(cc2c1C)OCO3
output: 9

input: Entry under review: COC(=O)c1cc(NC(=O)Nc2cc(C(F)(F)F)ccc2Cl)cc(C(=O)OC)c1 . Reported growth inhibition?
output: -0.55

input: Reported growth inhibition, compound CCN1CCC(S(=O)(=O)CCS(=O)(=O)C2CCN(CC)C2)C1 (stereo unspecified) : ____
output: 17.3

input: For O=C(O)/C=C(/CC(=O)O)C(=O)O , what is its reported growth inhibition?
output: -27.8

input: Field request: growth inhibition | item: OC1CN(c2ccc(Br)cc2)CC(O)CN(c2ccc(Br)cc2)C1 (stereo unspecified)
output: 99.5

input: Data request, read-out growth inhibition, for CCn1c(CCCc2nc3c([nH]2)c(=O)n(C)c(=O)n3C)nc2c1c(=O)n(C)c(=O)n2C
output: -40.7

input: // returns reported growth inhibition for input CN1c2ccccc2C2CCCCC21 (stereo unspecified)
output: 22.8

input: What growth inhibition value was documented for this compound, Cc1cc(=O)n(-c2ccccc2)c(=O)[nH]1 ?
output: -4.25

input: Query: growth inhibition; subject: NNC(=O)CC(=O)NN
output: 2.95
